# viability values compiled below
- test_protocol: HUVEC growth inhibition – cell-based, human, primary screen (AID 575);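 note: 100% = median of untreated cell wells with 0.1% DMSO on each plate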
- settings: HUVEC proliferation, CellTiter-Glo luminescence, 72 h; at 10 µM; stronger effect = lower value

{"compound": "NS(=O)(=O)c1ccc(NC(=O)CSc2nnc(Cc3cccs3)n2-c2ccccc2)cc1", "viability / %": 93.6}
{"compound": "COc1ccc(C2=CC(=O)OC3(CCCCC3)O2)cc1", "viability / %": 93.2}
{"compound": "CCCCOC(=O)Nc1nccs1", "viability / %": 107}
{"compound": "CCn1c(SCC(=O)C(C)(C)C)nnc1-c1cnccn1", "viability / %": 107}
{"compound": "O=C(CNCC1CCCO1)Nc1ccccc1-n1cccc1 (centres undefined)", "viability / %": 106}
{"compound": "Cc1csc(NC(=O)Nc2cccc(Cl)c2)n1", "viability / %": 75}
{"compound": "COc1ccccc1NC(=O)N(Cc1ccco1)Cc1cc2c(C)ccc(C)c2[nH]c1=O", "viability / %": 71.1}
{"compound": "CCOC(=O)Cc1csc(/C(=N/O)C(N)=O)n1", "viability / %": 94.7}
{"compound": "CCOC(=O)c1sc(NC(=O)CSc2n[nH]c(-c3ccccc3)n2)c(C#N)c1C", "viability / %": 48.2}
{"compound": "CC1(C)NC(=O)N(CC(O)CN2CCCC2)C1=O (centres undefined)", "viability / %": 103}
{"compound": "CCN(CC)c1ccc2c(c1)C(=O)N(C)C2=O", "viability / %": 71.6}
{"compound": "COc1ccc(CCNC(=O)CSc2nnc(CNc3ccc(Cl)cc3)o2)cc1OC", "viability / %": 60.5}
{"compound": "COc1ccc(-c2noc(COc3ccc(C)c(C)c3)n2)cc1OC", "viability / %": 108}
{"compound": "Cc1cc2ccccc2c(=O)n1CC(=O)N(C)c1ccc(F)cc1", "viability / %": 84.2}

----------
- test_protocol: reversal of MRP1-mediated doxorubicin resistance, pilot screen, H69AR cells, doxorubicin co-treatment (AID 601)
- settings: H69AR cells + 2 uM doxorubicin, CellTiter-Glo, 72 h; measured here: viability with 2 uM doxorubicin; at 10 µM; stronger effect = lower value

{"compound": "O=C(CN1c2cccc3cccc(c23)S1(=O)=O)N1CCOCC1", "viability": "93.4%"}
{"compound": "COc1ccccc1-n1nnnc1SCc1cc2c(cc1Br)OCO2", "viability": "77.2%"}
{"compound": "O=C(CN(Cc1ccc(F)cc1)C(=O)Cn1nnc2ccccc21)NCC1CCCO1 (stereo not given)", "viability": "85.8%"}
{"compound": "Cc1nnc2ccc(N3CCC4(CC3)OCCO4)nn12", "viability": "96.5%"}
{"compound": "CN(C)c1oc(-c2ccccc2Cl)nc1C#N", "viability": "78.1%"}
{"compound": "O=C1NCC(COCc2ccccc2)O1 (stereo not given)", "viability": "89.4%"}
{"compound": "O=C(Nc1ccon1)c1cccc(S(=O)(=O)N2CCCC2)c1", "viability": "98.8%"}
{"compound": "CC(C)CNC(=O)c1ccccc1NC(=O)CN(c1ccc2c(c1)OCCO2)S(C)(=O)=O", "viability": "90.8%"}
{"compound": "Cn1c(-c2ccc(F)cc2)cnc1NCc1ccccc1", "viability": "81.6%"}
{"compound": "Oc1cccc2ccc(Nc3ccccn3)nc12", "viability": "1.5%"}
